Source listed as ChEMBL document CHEMBL1139760.

- system-name: Cytochrome P450 1A2 (Homo sapiens, UniProt P05177)
- Sequence (P05177 whole entry): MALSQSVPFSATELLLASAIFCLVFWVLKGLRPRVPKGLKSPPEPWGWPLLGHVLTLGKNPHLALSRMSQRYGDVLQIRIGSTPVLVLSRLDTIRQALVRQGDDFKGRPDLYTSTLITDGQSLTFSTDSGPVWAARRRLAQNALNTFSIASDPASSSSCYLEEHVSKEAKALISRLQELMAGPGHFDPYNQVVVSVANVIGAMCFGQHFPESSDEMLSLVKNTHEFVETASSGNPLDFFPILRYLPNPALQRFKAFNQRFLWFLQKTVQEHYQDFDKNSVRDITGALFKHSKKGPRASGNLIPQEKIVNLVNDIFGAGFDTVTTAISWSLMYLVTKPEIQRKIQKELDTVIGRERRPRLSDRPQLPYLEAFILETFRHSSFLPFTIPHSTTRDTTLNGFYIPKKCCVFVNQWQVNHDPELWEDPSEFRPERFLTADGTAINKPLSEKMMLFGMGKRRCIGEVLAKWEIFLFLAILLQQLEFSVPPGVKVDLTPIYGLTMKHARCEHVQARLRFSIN
measurement-name: IC50 (µM)
Dear colleague, please return just the value in µM, with no unit written.

INPUT: Bench note: what IC50 did `Cc1ccc2c(OCCN3CCN(Cc4ccc5c(c4)N(Cc4ccccc4)C(=O)CO5)CC3)cccc2n1` show?
OUTPUT: 11

INPUT: # get_value(readout='IC50', item= `CCCCN1C(=O)COc2ccc(CN3CCN(CCOc4cccc5nc(C)ccc45)CC3)cc21` )
OUTPUT: 4

INPUT: Suppose we examine the compound `CCN1C(=O)COc2ccc(CN3CCN(CCOc4cccc5nc(C)ccc45)CC3)cc21` ; what IC50 value has been reported?
OUTPUT: 18

----------
- system-name: Cytochrome P450 3A4 (Homo sapiens, UniProt P08684)
- Sequence (P08684 whole entry): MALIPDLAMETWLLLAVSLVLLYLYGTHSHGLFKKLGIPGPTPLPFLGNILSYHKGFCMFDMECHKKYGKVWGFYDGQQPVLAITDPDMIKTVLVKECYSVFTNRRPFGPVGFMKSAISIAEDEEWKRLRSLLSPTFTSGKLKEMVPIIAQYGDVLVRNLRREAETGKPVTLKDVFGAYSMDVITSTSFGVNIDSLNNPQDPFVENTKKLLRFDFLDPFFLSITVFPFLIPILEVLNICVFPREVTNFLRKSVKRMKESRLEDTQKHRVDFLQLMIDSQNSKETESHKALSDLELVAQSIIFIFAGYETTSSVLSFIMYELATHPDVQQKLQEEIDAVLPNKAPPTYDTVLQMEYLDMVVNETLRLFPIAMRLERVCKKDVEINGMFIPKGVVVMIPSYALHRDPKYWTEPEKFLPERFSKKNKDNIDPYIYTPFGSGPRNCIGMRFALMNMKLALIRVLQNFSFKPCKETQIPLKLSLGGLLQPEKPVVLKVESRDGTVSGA
- test-protocol: Inhibition of CYP3A4
- Type: ADME
measurement-name: pIC50
// pIC50 here means minus log10 of the molar concentration (mol/L)

INPUT: Report pIC50 for `Cc1ccc2c(OCCN3CCN(Cc4ccc5c(c4)N(Cc4ccccc4)C(=O)CO5)CC3)cccc2n1` please.
OUTPUT: 4.92

INPUT: I'd like to know its pIC50. The compound in question is `Cc1ccc2c(OCCN3CCN(Cc4ccc5c(c4)N(CCc4ccccc4)C(=O)CO5)CC3)cccc2n1`
OUTPUT: 5.05

----------
- system-name: Sodium-dependent serotonin transporter (Rattus norvegicus, UniProt P31652)
- Sequence (P31652 whole entry): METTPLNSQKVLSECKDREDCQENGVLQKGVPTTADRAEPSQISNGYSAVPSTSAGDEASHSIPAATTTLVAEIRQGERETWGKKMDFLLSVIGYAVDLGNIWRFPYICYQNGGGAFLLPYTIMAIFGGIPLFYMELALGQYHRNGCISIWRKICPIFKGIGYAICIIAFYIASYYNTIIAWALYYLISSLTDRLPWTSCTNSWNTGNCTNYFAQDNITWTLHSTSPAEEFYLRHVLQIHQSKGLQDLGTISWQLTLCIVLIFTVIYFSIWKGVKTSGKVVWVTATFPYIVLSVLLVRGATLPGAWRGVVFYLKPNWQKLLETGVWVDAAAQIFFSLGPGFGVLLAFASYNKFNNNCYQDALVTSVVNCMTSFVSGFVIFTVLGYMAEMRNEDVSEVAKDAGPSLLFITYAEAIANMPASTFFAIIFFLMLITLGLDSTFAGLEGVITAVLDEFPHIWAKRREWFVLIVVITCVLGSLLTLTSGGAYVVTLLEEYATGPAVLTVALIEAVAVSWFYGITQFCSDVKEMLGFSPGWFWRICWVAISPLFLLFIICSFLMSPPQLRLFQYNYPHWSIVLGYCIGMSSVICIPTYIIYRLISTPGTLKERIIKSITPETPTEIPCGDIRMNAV
Threshold 100 nM. Ki below it: yes (1). Ki at it or above: no (0).

INPUT: Please determine if `Cc1ccc2c(OCCN3CCN(Cc4ccc5c(c4)NC(=O)CO5)CC3)cccc2n1` is below 100 nM in terms of Ki.
OUTPUT: yes (1)

INPUT: Dear colleague, could you confirm whether Ki of `CCCCN1C(=O)COc2ccc(CN3CCN(CCOc4cccc5nc(C)ccc45)CC3)cc21` falls below 100 nM? Thanks.
OUTPUT: no (0)

INPUT: For this compound, is Ki lower than 100 nM? `CCCN1C(=O)COc2ccc(CN3CCN(CCOc4cccc5nc(C)ccc45)CC3)cc21`
OUTPUT: no (0)

INPUT: Decide: Ki of `Cc1ccc2c(OCCN3CCN(Cc4ccc5c(c4F)N(C)C(=O)CO5)CC3)cccc2n1` strictly below 100 nM?
OUTPUT: yes (1)

INPUT: Hello, is Ki of the following compound strictly smaller than 100 nM? `CCN1C(=O)COc2ccc(CC3CCN(CCOc4cccc5nc(C)ccc45)CC3)cc21`
OUTPUT: no (0)

INPUT: Input `Cc1ccc2c(OCCN3CCN(Cc4cc(F)c5c(c4)N(C)C(=O)CO5)CC3)cccc2n1` ; condition: Ki strictly below 100 nM. Does it hold?
OUTPUT: yes (1)

INPUT: API: query returns whether the compound falls strictly under 100 nM in Ki. Query: `CCN1C(=O)COc2ccc(CN3CCN(CCOc4cccc5nc(C)ccc45)CC3)cc21`
OUTPUT: no (0)

----------
- system-name: 5-hydroxytryptamine receptor 1A (Homo sapiens)
- test-protocol: Displacement of [3H]-WAY100635 from human recombinant 5HT1A receptor expressed in CHO cells
measurement-name: Ki (nM)
Write the value in nM as a bare number.

INPUT: Need Ki, item `Cc1ccc2c(OCCN3CCN(Cc4ccc5c(c4)N(CC(C)C)C(=O)CO5)CC3)cccc2n1`
OUTPUT: 2

INPUT: Report Ki for `Cc1ccc2c(OCCN3CCC(Cc4ccc5c(c4)N(C(C)C)C(=O)CO5)CC3)cccc2n1` please.
OUTPUT: 0.631

INPUT: Look up Ki for this molecule: `Cc1ccc2c(OCCN3CCC(Cc4ccc5c(c4)N(C)C(=O)CO5)CC3)cccc2n1`
OUTPUT: 0.398

INPUT: Any idea what its Ki is? The molecule is `Cc1ccc2c(OCCN3CCN(Cc4ccc5c(c4)N(C)C(=O)CO5)CC3)cccc2n1`
OUTPUT: 1.58

INPUT: Looking for the measured Ki of `Cc1ccc2c(OCCN3CCN(Cc4ccc5c(c4)N(CCc4ccccc4)C(=O)CO5)CC3)cccc2n1` , can you help?
OUTPUT: 1.26

INPUT: Looking for the measured Ki of `Cc1ccc2c(OCCN3CCN(Cc4ccc5c(c4)NC(=O)CO5)CC3)cccc2n1` , can you help?
OUTPUT: 1.58

INPUT: Param item = `Cc1ccc2c(OCCN3CCN(Cc4ccc5c(c4)N(Cc4ccccc4)C(=O)CO5)CC3)cccc2n1` ; retrieve measured Ki.
OUTPUT: 3.98

INPUT: For `CCN1C(=O)COc2ccc(CN3CCN(CCOc4cccc5nc(C)ccc45)CC3)cc21` , what is its reported Ki?
OUTPUT: 1.26

INPUT: Please look up its Ki: `CCN1C(=O)COc2ccc(CC3CCN(CCOc4cccc5nc(C)ccc45)CC3)cc21`
OUTPUT: 0.251

INPUT: I have this molecule here, `CCCCN1C(=O)COc2ccc(CN3CCN(CCOc4cccc5nc(C)ccc45)CC3)cc21` , and I need its recorded Ki.
OUTPUT: 1.26

INPUT: I am curious: what Ki value has been reported for `CCCN1C(=O)COc2ccc(CN3CCN(CCOc4cccc5nc(C)ccc45)CC3)cc21` ?
OUTPUT: 0.251

----------
Kindly supply the reported Intrinsic activity values for the records listed here.
- system-name: 5-hydroxytryptamine receptor 1A (Homo sapiens) (UniProt P08908)
- Sequence (P08908 whole entry): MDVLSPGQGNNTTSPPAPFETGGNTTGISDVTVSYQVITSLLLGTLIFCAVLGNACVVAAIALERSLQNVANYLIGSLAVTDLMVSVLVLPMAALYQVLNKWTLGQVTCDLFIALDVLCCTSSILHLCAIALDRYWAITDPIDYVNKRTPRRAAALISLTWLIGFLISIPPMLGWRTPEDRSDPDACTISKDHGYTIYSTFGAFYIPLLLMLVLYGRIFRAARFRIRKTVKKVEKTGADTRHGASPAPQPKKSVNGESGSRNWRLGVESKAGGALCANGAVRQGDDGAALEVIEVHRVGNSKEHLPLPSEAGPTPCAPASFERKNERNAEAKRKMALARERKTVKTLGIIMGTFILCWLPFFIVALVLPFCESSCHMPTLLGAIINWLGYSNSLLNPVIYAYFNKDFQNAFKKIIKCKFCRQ
- test-protocol: Intrinsic activity at human recombinant 5HT1A receptor expressed in CHO cells by [35S]GTP-gamma-S binding assay relative to 5-hydroxytryptamine
- Assay type: functional, cell-based
Output: the number by itself.

INPUT: I have this molecule here, `CCCN1C(=O)COc2ccc(CN3CCN(CCOc4cccc5nc(C)ccc45)CC3)cc21` , and I need its recorded Intrinsic activity.
OUTPUT: 0.1

INPUT: Which measured Intrinsic activity value corresponds to `CCN1C(=O)COc2ccc(CN3CCN(CCOc4cccc5nc(C)ccc45)CC3)cc21` ?
OUTPUT: 0.1

INPUT: Given `CCN1C(=O)COc2ccc(CN3CCN(CCOc4cccc5nc(C)ccc45)CC3)c(F)c21` , state its recorded Intrinsic activity.
OUTPUT: 0.1

INPUT: Consider the molecule shown here: `Cc1ccc2c(OCCN3CCN(Cc4ccc5c(c4F)N(C)C(=O)CO5)CC3)cccc2n1` What is its recorded Intrinsic activity?
OUTPUT: 0

INPUT: Look up Intrinsic activity: `Cc1ccc2c(OCCN3CCN(Cc4ccc5c(c4)N(C)C(=O)CO5)CC3)cccc2n1`
OUTPUT: 0

----------
- system-name: 5-hydroxytryptamine receptor 1D (Homo sapiens, UniProt P28221)
- Sequence (P28221 whole entry): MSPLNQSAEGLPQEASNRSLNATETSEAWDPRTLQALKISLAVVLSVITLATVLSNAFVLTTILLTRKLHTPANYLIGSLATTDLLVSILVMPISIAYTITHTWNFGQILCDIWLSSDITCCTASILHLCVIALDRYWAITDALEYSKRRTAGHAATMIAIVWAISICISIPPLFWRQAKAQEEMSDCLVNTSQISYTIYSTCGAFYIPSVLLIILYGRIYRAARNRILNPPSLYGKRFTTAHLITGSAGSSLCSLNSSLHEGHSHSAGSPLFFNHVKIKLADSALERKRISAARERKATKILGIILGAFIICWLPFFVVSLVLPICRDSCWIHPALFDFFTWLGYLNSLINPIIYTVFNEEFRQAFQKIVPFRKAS
- test-protocol: Displacement of [3H]5-HT from human recombinant 5HT1D receptor expressed in CHO cells
pKi: −log10 of the molar value.
Use 9 as the dividing line for pKi, with the line itself on the Met side and lower values as Not met.

INPUT: Does the reported pKi for `Cc1ccc2c(OCCN3CCN(Cc4ccc5c(c4F)N(C)C(=O)CO5)CC3)cccc2n1` fall at or above the 9 mark?
OUTPUT: Met

INPUT: In plain terms: is recorded pKi at least 9 for `Cc1ccc2c(OCCN3CCN(Cc4ccc5c(c4)NC(=O)CO5)CC3)cccc2n1` ?
OUTPUT: Not met

INPUT: Does `Cc1ccc2c(OCCN3CCC(Cc4ccc5c(c4)N(C(C)C)C(=O)CO5)CC3)cccc2n1` have a reported pKi of at least 9?
OUTPUT: Not met

INPUT: Is reported pKi greater than or equal to 9 here: `Cc1ccc2c(OCCN3CCC(Cc4ccc5c(c4)N(C)C(=O)CO5)CC3)cccc2n1`
OUTPUT: Not met

INPUT: For this compound, is measured pKi 9 or higher? `Cc1ccc2c(OCCN3CCN(Cc4ccc5c(c4)N(Cc4ccccc4)C(=O)CO5)CC3)cccc2n1`
OUTPUT: Not met

INPUT: Assess whether reported pKi for `Cc1ccc2c(OCCN3CCN(Cc4cc(F)c5c(c4)N(C)C(=O)CO5)CC3)cccc2n1` sits at 9 or higher.
OUTPUT: Met

INPUT: Is pKi for `Cc1ccc2c(OCCN3CCN(Cc4ccc5c(c4)N(C)C(=O)CO5)CC3)cccc2n1` at or above 9?
OUTPUT: Met
